Test system: Vero
Test summary: Cytotoxicity against african green monkey Vero cells by sulforhodamine B assay
Assay type: cell-based
Measurement setup: Chlorocebus sabaeus
Recorded IC50 by entry
Provide the reading as a plain figure in µg/mL.

[
  {
    "Molecule": "CC(C)=CCc1c2c(c(O)c3c(=O)c(O)c(-c4ccc(O)cc4)oc13)C=CC(C)(C)O2 [DEHYDROLUPINIFOLINOL]",
    "Quantity unit": "µg/mL",
    "IC50": 11.1
  },
  {
    "Molecule": "COc1ccc([C@H]2Oc3c(CC=C(C)C)c4c(c(O)c3C(=O)[C@H]2O)C=CC(C)(C)O4)cc1",
    "Quantity unit": "µg/mL",
    "IC50": 6.9
  },
  {
    "Molecule": "COc1ccc(-c2oc3c(CC=C(C)C)c4c(c(O)c3c(=O)c2O)C=CC(C)(C)O4)cc1",
    "Quantity unit": "µg/mL",
    "IC50": 7
  },
  {
    "Molecule": "COc1ccc([C@@H]2CC(=O)c3c(O)c4c(c(CC=C(C)C)c3O2)OC(C)(C)C=C4)c(O)c1",
    "Quantity unit": "µg/mL",
    "IC50": 6.4
  }
]

Consider the record given below.
Give its IC50 value. Item: COc1ccc([C@H]2Oc3c(CC=C(C)C)c4c(c(O)c3C(=O)[C@@H]2O)C=CC(C)(C)O4)cc1 7.9
